# System: CYP3A
# procedure_summary: IC50-shift experiment, CYP3A in RLMs
# Format: in vitro ADME
# assay_setup: rat, rat liver microsomes, probe midazolam, 30 min preincubation with 1.0 mM NADPH, midazolam 3.5 μM
measured_property: IC50 at 30 min

Fill in: IC50 at 30 min of Cc1ccc(Sc2ccccc2N2CCNCC2)c(C)c1 [vortioxetine] is ___
16.4 µM

###

# System: CYP2C-3
# procedure_summary: IC50 of vortioxetine on CYP2C-3 (mephenytoin) in RLMs
# Type: in vitro ADME
# assay_setup: rat, rat liver microsomes, probe mephenytoin, RLMs 0.20 mg/mL, mephenytoin at Km, 37°C, 30 min, read-out: IC50
measured_property: IC50 at 30 min (µM)
Numbers only, in µM.

Dear colleague, I am looking for the recorded IC50 at 30 min of the following compound: Cc1ccc(Sc2ccccc2N2CCNCC2)c(C)c1 [vortioxetine]
20.3
